PROCEDURE_DETAILS: Compound formulation stability assay
Format: physicochemical
STATED_CONDITIONS: 10 mg/mL in 10% DMSO/10% solutol HS 15/80% water, 2-8° C., Day 7
Description: Compound formulation stability assay: Test articles were formulated in 10% DMSO/10% solutol HS 15/80% water and stored at 4° C. Formulated compounds were analyzed by a HPLC-UV method for actual concentrations and % remaining on Day 1, 4 and 7 after formulation to determine the stability of the formulated test article. […] Formulated compounds were analyzed on Day 1, 4 and 7 after formulation to determine the stability of the formulated test article.

SMILES_ENTRY | RESULT_UNITS | Remaining % (Day 7)
Cc1c(F)c(N)cc(C(=O)Nc2cc(-n3cc(C(=O)N4CCN(C)CC4)nn3)c(F)cc2N2C[C@@H](C)N(C)[C@@H](C)C2)c1Cl | % | 98.7
CCN(CC)C(=O)c1cn(-c2cc(NC(=O)c3cc(N)c(F)c(C)c3Cl)c(N3C[C@@H](C)N(C)[C@@H](C)C3)cc2F)nn1 | % | 102
C[C@@H]1CN(c2ncc(-c3cc(Nc4ncnc(Cl)c4N)c(N4CCN(C)[C@@H](C)C4)cc3F)cn2)C[C@H](C)O1 | % | 99.1
C[C@H]1CN(c2cc(F)c(-c3cnc(N4CCOCC4)nc3)cc2Nc2ncnc(Cl)c2N)CCN1C | % | 104

----------
PROCEDURE_DETAILS: in vitro
STATED_CONDITIONS: human, plasma

COMPOUND | fraction unbound
Cc1c(F)c(N)cc(C(=O)Nc2cc(-n3cc(C(=O)N4CCN(C)CC4)nn3)c(F)cc2N2C[C@@H](C)N(C)[C@@H](C)C2)c1Cl [HYBI-084] | < 0.07

----------
PROCEDURE_DETAILS: Dog PK (oral)
Assay type: in vivo, Beagle dogs
STATED_CONDITIONS: Beagle, plasma, 4.5 mg/kg, 4.5 mpk
# AUC(0-t) per entry
MEASUREMENT_KIND: AUC(0-t) (µM·h)

MOLECULE | MEASUREMENT_KIND | RESULT_UNITS | REPORTED_VALUE
Cc1c(F)c(N)cc(C(=O)Nc2cc(-n3cc(C(=O)N4CCN(C)CC4)nn3)c(F)cc2N2C[C@@H](C)N(C)[C@@H](C)C2)c1Cl [HYBI-084] | AUC(0-t) | µM·h | 0.459
C[C@@H]1CN(c2ncc(-c3cc(Nc4ncnc(Cl)c4N)c(N4CCN(C)[C@@H](C)C4)cc3F)cn2)C[C@H](C)O1 [DDO-2213_023] | AUC(0-t) | µM·h | 13.4

----------
# % Remaining after 60 min incubation per entry
PROCEDURE_DETAILS: WBS (whole blood stability) assay
Format: in vitro ADME
STATED_CONDITIONS: Rat whole blood, 2 μM, 37° C.
MEASUREMENT_KIND: % Remaining after 60 min incubation (%)

SMILES_ENTRY | REPORTED_VALUE
Cc1c(F)c(N)cc(C(=O)Nc2cc(-n3cc(C(=O)N4CCN(C)CC4)nn3)c(F)cc2N2C[C@@H](C)N(C)[C@@H](C)C2)c1Cl | 109
CCN(CC)C(=O)c1cn(-c2cc(NC(=O)c3cc(N)c(F)c(C)c3Cl)c(N3C[C@@H](C)N(C)[C@@H](C)C3)cc2F)nn1 | 99.6
C[C@H]1CN(c2cc(F)c(-c3cnc(N4CCOCC4)nc3)cc2Nc2ncnc(Cl)c2N)CCN1C | 1
C[C@@H]1CN(c2ncc(-c3cc(Nc4ncnc(Cl)c4N)c(N4CCN(C)[C@@H](C)C4)cc3F)cn2)C[C@H](C)O1 | 103

----------
TGT: UniProtKB O75417
Sequence (O75417 whole entry): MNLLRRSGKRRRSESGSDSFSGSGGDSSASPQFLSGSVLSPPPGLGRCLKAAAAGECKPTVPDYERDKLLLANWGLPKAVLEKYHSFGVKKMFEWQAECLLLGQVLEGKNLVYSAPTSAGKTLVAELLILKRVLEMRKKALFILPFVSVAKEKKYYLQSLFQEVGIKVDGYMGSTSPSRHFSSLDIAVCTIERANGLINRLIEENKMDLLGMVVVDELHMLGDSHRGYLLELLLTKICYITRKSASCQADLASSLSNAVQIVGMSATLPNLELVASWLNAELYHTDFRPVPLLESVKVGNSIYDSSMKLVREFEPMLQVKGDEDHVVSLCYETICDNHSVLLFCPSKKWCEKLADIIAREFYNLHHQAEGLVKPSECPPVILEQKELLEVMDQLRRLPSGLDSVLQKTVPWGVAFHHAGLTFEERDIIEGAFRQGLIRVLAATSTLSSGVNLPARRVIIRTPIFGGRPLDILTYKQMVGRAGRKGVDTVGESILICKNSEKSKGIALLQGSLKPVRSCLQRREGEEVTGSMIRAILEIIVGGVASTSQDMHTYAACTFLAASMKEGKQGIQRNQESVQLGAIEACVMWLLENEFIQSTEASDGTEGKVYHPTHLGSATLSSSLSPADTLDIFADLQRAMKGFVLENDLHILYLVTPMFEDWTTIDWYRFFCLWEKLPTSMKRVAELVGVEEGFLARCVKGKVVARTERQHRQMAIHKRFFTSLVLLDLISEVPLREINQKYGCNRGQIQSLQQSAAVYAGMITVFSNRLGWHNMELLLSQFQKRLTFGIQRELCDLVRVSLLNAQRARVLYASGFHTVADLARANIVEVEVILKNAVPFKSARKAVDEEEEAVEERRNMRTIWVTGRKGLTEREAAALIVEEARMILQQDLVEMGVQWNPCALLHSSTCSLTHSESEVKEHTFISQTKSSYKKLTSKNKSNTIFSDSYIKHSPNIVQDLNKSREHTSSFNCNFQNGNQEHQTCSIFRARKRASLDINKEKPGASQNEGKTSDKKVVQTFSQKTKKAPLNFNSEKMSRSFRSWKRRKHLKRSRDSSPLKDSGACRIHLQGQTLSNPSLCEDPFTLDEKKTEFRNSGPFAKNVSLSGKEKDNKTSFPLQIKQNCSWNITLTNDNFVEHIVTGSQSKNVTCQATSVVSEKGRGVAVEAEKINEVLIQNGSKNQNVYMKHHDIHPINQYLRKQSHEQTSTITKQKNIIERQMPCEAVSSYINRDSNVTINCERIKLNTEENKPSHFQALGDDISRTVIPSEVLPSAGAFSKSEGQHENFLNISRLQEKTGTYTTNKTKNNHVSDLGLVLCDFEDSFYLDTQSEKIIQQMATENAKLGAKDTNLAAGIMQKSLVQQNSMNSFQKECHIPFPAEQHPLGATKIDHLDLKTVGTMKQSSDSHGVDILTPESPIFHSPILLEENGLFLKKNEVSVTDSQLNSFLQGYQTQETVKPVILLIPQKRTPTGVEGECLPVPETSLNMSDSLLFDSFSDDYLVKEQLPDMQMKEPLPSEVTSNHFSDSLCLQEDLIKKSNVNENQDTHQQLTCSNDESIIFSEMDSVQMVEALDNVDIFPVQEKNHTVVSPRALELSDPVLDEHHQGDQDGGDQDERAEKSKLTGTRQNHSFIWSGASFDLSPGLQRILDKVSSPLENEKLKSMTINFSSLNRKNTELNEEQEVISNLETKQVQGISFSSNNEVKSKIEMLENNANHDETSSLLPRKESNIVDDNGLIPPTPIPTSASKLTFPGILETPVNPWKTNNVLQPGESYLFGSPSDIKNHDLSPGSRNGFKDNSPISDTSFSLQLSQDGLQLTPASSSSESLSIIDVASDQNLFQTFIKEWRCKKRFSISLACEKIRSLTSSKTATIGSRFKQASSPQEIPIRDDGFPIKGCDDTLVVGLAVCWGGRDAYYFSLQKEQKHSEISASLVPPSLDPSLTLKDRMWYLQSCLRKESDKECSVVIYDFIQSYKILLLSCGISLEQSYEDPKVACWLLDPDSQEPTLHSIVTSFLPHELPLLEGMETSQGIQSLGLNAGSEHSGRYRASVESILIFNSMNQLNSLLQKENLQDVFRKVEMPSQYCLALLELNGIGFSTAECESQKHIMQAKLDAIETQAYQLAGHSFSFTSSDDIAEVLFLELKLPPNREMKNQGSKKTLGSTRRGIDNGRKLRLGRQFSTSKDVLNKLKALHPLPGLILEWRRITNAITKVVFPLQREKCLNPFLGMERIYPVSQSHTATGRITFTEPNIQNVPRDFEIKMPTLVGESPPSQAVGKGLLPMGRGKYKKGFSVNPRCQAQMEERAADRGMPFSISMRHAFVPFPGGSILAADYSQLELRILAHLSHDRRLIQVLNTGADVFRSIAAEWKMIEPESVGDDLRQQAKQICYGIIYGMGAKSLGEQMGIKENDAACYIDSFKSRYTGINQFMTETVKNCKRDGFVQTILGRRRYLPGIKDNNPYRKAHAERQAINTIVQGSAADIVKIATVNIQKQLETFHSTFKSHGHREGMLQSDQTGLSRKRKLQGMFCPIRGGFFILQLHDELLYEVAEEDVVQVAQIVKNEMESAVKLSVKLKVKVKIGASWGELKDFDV
pIC50: −log10 of the molar value.
MEASUREMENT_KIND: pIC50

SMILES_ENTRY | MEASUREMENT_KIND | REPORTED_VALUE
Cc1c(F)c(N)cc(C(=O)Nc2cc(-n3cc(C(=O)N4CCN(C)CC4)nn3)c(F)cc2N2C[C@@H](C)N(C)[C@@H](C)C2)c1Cl | pIC50 | < 6.00

----------
PROCEDURE_DETAILS: PK profile of HBI-2375 in plasma, brain and CSF in SD rats
Type: in vivo
STATED_CONDITIONS: Sprague-Dawley, rat; SD rats, single PO 40 mg/kg, CSF, male; read-out: Tmax

SMILES_ENTRY | Tmax
Cc1c(F)c(N)cc(C(=O)Nc2cc(-n3cc(C(=O)N4CCN(C)CC4)nn3)c(F)cc2N2C[C@@H](C)N(C)[C@@H](C)C2)c1Cl | 1 h

----------
PROCEDURE_DETAILS: PK profile of HBI-2375 in plasma and brain in C57BL/6J mice
Assay type: in vivo
STATED_CONDITIONS: mouse; C57BL/6J mice, 7-day repeat PO 80 mg/kg, plasma, male

SMILES_ENTRY | RESULT_UNITS | Cmax at 7 day
Cc1c(F)c(N)cc(C(=O)Nc2cc(-n3cc(C(=O)N4CCN(C)CC4)nn3)c(F)cc2N2C[C@@H](C)N(C)[C@@H](C)C2)c1Cl | ng/mL | 2230

----------
PROCEDURE_DETAILS: PK profile of HBI-2375 in plasma and brain in C57BL/6J mice
Format: in vivo
STATED_CONDITIONS: mouse; C57BL/6J mice, single PO 80 mg/kg, brain, female
MEASUREMENT_KIND: Cmax

COMPOUND | REPORTED_VALUE
Cc1c(F)c(N)cc(C(=O)Nc2cc(-n3cc(C(=O)N4CCN(C)CC4)nn3)c(F)cc2N2C[C@@H](C)N(C)[C@@H](C)C2)c1Cl [HYBI-084] | 556 ng/g

----------
PROCEDURE_DETAILS: Liver S9 stability assay
Type: in vitro ADME, human
STATED_CONDITIONS: Human liver S9
MEASUREMENT_KIND: half-life at 1 μM

SMILES_ENTRY | REPORTED_VALUE
CCN(CC)C(=O)c1cn(-c2cc(NC(=O)c3cc(N)c(F)c(C)c3Cl)c(N3C[C@@H](C)N(C)[C@@H](C)C3)cc2F)nn1 | > 145 min
Cc1c(F)c(N)cc(C(=O)Nc2cc(-n3cc(C(=O)N4CCN(C)CC4)nn3)c(F)cc2N2C[C@@H](C)N(C)[C@@H](C)C2)c1Cl | > 145 min
C[C@@H]1CN(c2ncc(-c3cc(Nc4ncnc(Cl)c4N)c(N4CCN(C)[C@@H](C)C4)cc3F)cn2)C[C@H](C)O1 | > 145 min
C[C@H]1CN(c2cc(F)c(-c3cnc(N4CCOCC4)nc3)cc2Nc2ncnc(Cl)c2N)CCN1C | > 145 min

----------
TGT: WDR5 (Homo sapiens, UniProt P61964)
PROCEDURE_DETAILS: WDR5 TR-FRET Assay
Type: binding
STATED_CONDITIONS: 5 nM WDR5 protein, 10 nM peptide, read-out: IC50 (MLL1-WDR5 PPI inhibitory activity)
MEASUREMENT_KIND: IC50 (nM)

MOLECULE | REPORTED_VALUE
CCN(CC)C(=O)c1cn(-c2cc(NC(=O)c3cc(N)c(F)c(C)c3Cl)c(N3C[C@@H](C)N(C)[C@@H](C)C3)cc2F)nn1 [HYBI-082] | 5.32
Cc1c(F)c(N)cc(C(=O)Nc2cc(-n3cc(C(=O)N4CCN(C)CC4)nn3)c(F)cc2N2C[C@@H](C)N(C)[C@@H](C)C2)c1Cl [HYBI-084] | 4.48
C[C@H]1CN(c2cc(F)c(-c3cnc(N4CCOCC4)nc3)cc2Nc2ncnc(Cl)c2N)CCN1C [DDO-2213_020] | 7.66

----------
PROCEDURE_DETAILS: WBS (whole blood stability) assay
Type: in vitro ADME
STATED_CONDITIONS: Dog whole blood, 2 μM, 37° C.

COMPOUND | RESULT_UNITS | % Remaining after 60 min incubation
Cc1c(F)c(N)cc(C(=O)Nc2cc(-n3cc(C(=O)N4CCN(C)CC4)nn3)c(F)cc2N2C[C@@H](C)N(C)[C@@H](C)C2)c1Cl [HYBI-084] | % | 94.6
CCN(CC)C(=O)c1cn(-c2cc(NC(=O)c3cc(N)c(F)c(C)c3Cl)c(N3C[C@@H](C)N(C)[C@@H](C)C3)cc2F)nn1 [HYBI-082] | % | 90.6
C[C@H]1CN(c2cc(F)c(-c3cnc(N4CCOCC4)nc3)cc2Nc2ncnc(Cl)c2N)CCN1C [DDO-2213_020] | % | 101
C[C@@H]1CN(c2ncc(-c3cc(Nc4ncnc(Cl)c4N)c(N4CCN(C)[C@@H](C)C4)cc3F)cn2)C[C@H](C)O1 [DDO-2213_023] | % | 97.3
